Entries and their protein stability index values follow.
B1: BCL2L13 (parent)
chain: QSLDQEILLKVKTEIEEELKSLDK

Variants of: B1
assayRemarks: protein stability index of a GFP-peptide fusion (GPS, HEK-293T) (PSI 1-6); higher = more stable;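 further: lentivirally expressed fusions sorted by FACS into six bins by GFP to DsRed ratio, PSI derived from sequencing read proportions per bin multiplied by bin number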
conditionSummary: c terminus: a fixed tail appended
endpointLabel: protein stability index

mutantLabel | numericValue
D23I | 3.3
E16C | 3.97
Q1D | 4.78
E18S | 4.61
S21L | 4.46
K10W | 3.15
L3G | 5.16
E16T | 4.72
E17P | 4.95
V11W | 5.5
L19R | 5.57
L22F | 5.37
K24E | 5.74
V11H | 4.56
E17R | 3.99
E14D | 4.7
L8C | 5.55
L8D | 5.83
